Kindly state GI50 for each of the entries shown.
System: SK-MEL-5
Method description: NCI tumour cell line growth inhibition, 48 h
The source made the active and inactive calls. Cut-off read from the data, not from the text of the source: active = GI50 up to about 1.1 µM and inactive = higher.

(Q) Fill in the blank: the reported GI50 of Cc1cc2c(c(C#N)c1C)NC(=O)C(CC(=O)O)C2=O (stereo unspecified) is ____.
(A) > 100 µM (inactive)

(Q) Fill in the blank: the reported GI50 of O=C(O)C1Cc2ccccc2OC1=O (stereo unspecified) is ____.
(A) > 100 µM (inactive)

(Q) Fill in the blank: the reported GI50 of CCCC/C=C/C/C=C/CCCCCCCCC(=O)OCC1CCCN2CCCCC12 (stereo unspecified) is ____.
(A) > 100 µM (inactive)

(Q) Fill in the blank: the reported GI50 of NC1=NCC(CN2CCOCC2)O1 (stereo unspecified) is ____.
(A) > 100 µM (inactive)

(Q) Fill in the blank: the reported GI50 of COC(=O)[C@H](Cc1ccccc1)NC(=O)c1ccc(CNC(=O)/C=C/c2ccc(OCc3ccccc3)cc2)cc1 is ____.
(A) 7.87 µM (inactive)

(Q) Fill in the blank: the reported GI50 of O=C(O)c1cnc2c(ccc3ncc(C(=O)O)c(O)c32)c1O is ____.
(A) > 100 µM (inactive)

(Q) Fill in the blank: the reported GI50 of CC1C2=C(CCCC2=O)N(c2ccc(Cl)cc2)C2=C1C(=O)CCC2 is ____.
(A) 40.6 µM (inactive)

(Q) Fill in the blank: the reported GI50 of S=c1[nH]nc(Cn2c3ccc(Br)cc3c3nc4ccccc4nc32)o1 is ____.
(A) 31.6 µM (inactive)

(Q) Fill in the blank: the reported GI50 of CSC1=N/C(=C\c2ccco2)C(=O)N1CN1CCCCC1 is ____.
(A) 55.1 µM (inactive)

(Q) Fill in the blank: the reported GI50 of C#CCOC(=O)c1ccccc1OC(C)=O is ____.
(A) > 100 µM (inactive)

(Q) Fill in the blank: the reported GI50 of CSc1csc(-c2ccc(-c3ccc(-c4cc(SC)cs4)s3)s2)c1 is ____.
(A) > 100 µM (inactive)

(Q) Fill in the blank: the reported GI50 of C/C(=N\Nc1nc2ccccc2[nH]1)c1cccc[n+]1[O-] is ____.
(A) > 100 µM (inactive)

(Q) Fill in the blank: the reported GI50 of COC1OC(CBr)C(OC(=O)c2ccccc2)C(O)C1Br (stereo unspecified) is ____.
(A) > 100 µM (inactive)

(Q) Fill in the blank: the reported GI50 of Cc1ccc([N+](=O)[O-])cc1S(=O)(=O)Nc1ccc(C2=NN(S(=O)(=O)c3cc([N+](=O)[O-])ccc3C)C(c3ccco3)C2)cc1 (stereo unspecified) is ____.
(A) 30.3 µM (inactive)

(Q) Fill in the blank: the reported GI50 of C=CCN(c1cc(OC)c2c(c1[N+](=O)[O-])C(C)(SC)C(=O)N2)S(C)(=O)=O (stereo unspecified) is ____.
(A) > 100 µM (inactive)

(Q) Fill in the blank: the reported GI50 of O=C1CC(=O)c2c(O)cc(O)c(c2O)-c2c(ccc(O)c2O)C2=CC(=O)c3c(O)cc(O)c(c3O2)-c2c1ccc(O)c2O.O=C1CC2(O)Oc3c1c(O)cc(O)c3-c1c(ccc(O)c1O)-c1cc(=O)c3c(O)cc(O)c(c3o1)-c1c2ccc(O)c1O is ____.
(A) > 50 µM (inactive)

(Q) Fill in the blank: the reported GI50 of CCOC(=O)Cn1c(=O)n(C)c(=O)c2[nH]cnc21 is ____.
(A) > 100 µM (inactive)

(Q) Fill in the blank: the reported GI50 of CSc1nc2c(nc(C)c(=O)n2C2OCC(OC(C)=O)C(OC(C)=O)C2OC(C)=O)c(=O)[nH]1 (stereo unspecified) is ____.
(A) > 100 µM (inactive)

(Q) Fill in the blank: the reported GI50 of CC[N+](CC)(CC)Cc1cc2ccccc2n1C(=O)OC is ____.
(A) > 100 µM (inactive)

(Q) Fill in the blank: the reported GI50 of CCOC(=O)[C@H]1C[C@]23CN(C(=O)OC(C)(C)C)CC[C@H]2CCC2(SCCCS2)[C@@H]3N1C is ____.
(A) 18.5 µM (inactive)

(Q) Fill in the blank: the reported GI50 of Cc1cc(Cl)cc2c1NC(=O)C2(O)C(C(=O)c1ccccc1)c1ccccc1 (stereo unspecified) is ____.
(A) 21.2 µM (inactive)

(Q) Fill in the blank: the reported GI50 of O=S(=O)(c1ccccc1)[C@H]1[C@@H]2O[C@@H]2C[C@@H]1O is ____.
(A) > 100 µM (inactive)

(Q) Fill in the blank: the reported GI50 of Nc1ccc(C(=O)N/C(=C\c2cccc([N+](=O)[O-])c2)c2nc3ccccc3[nH]2)cc1 is ____.
(A) 76.4 µM (inactive)

(Q) Fill in the blank: the reported GI50 of C=C(Br)C(C)(Br)CCC(Br)C(C)(C)Cl (stereo unspecified) is ____.
(A) 17.2 µM (inactive)

(Q) Fill in the blank: the reported GI50 of Nc1ccc2ncc(Nc3ccc(Cl)c(Cl)c3)nc2c1 is ____.
(A) 17.5 µM (inactive)

(Q) Fill in the blank: the reported GI50 of C[Si](C)(C)C#Cc1cc(-c2nc3ccccc3s2)ccc1N is ____.
(A) 15.5 µM (inactive)

(Q) Fill in the blank: the reported GI50 of CCCCCCCCCCCCCP(=O)(OC)OC is ____.
(A) 18.6 µM (inactive)

(Q) Fill in the blank: the reported GI50 of CCCCCCCCCCCCCCCCCCOP1(=O)OCCO1 is ____.
(A) > 100 µM (inactive)

(Q) Fill in the blank: the reported GI50 of CCOC(=O)c1ccc(C(=O)/C(C(C)=O)=C2\CCCN2C)n1C is ____.
(A) 42.9 µM (inactive)

(Q) Fill in the blank: the reported GI50 of C[N+]1(C)C/C(=C\C=C\c2ccccc2)C(=O)/C(=C/C=C/c2ccccc2)C1 is ____.
(A) 6.24 µM (inactive)

(Q) Fill in the blank: the reported GI50 of CCC(Nc1ncnc2nc[nH]c12)C(=O)O (stereo unspecified) is ____.
(A) > 100 µM (inactive)

* * *

System: LOX IMVI
Method description: NCI tumour cell line growth inhibition, 48 h
The source made the active and inactive calls. No stated cut-off is given here; in the data, active = GI50 up to about 1.1 µM and inactive = higher.
Form entry, call: pick from true (active), false (inactive)

(Q) What was the test verdict on CCOC(=O)C1(c2ccccc2)CCC(=O)CC1 ?
(A) false

(Q) What was the test verdict on COc1c2cc([N+](=O)[O-])cc1CN(C(=O)C(F)(F)F)CCOCCN(C(=O)C(F)(F)F)C2 ?
(A) false

(Q) What was the test verdict on CCOC(=O)CCSS(=O)(=O)C(F)(F)F ?
(A) false

(Q) What was the test verdict on C=C1c2ccccc2Oc2nc3nc(N)c(C#N)c(N)c3c(N)c21 ?
(A) false

(Q) What was the test verdict on C=C(C)C(=O)[C@@]12C(=O)[C@@H](C)CC[C@H]1[C@H](C)C[C@@H]2C=C(C)C ?
(A) false

(Q) What was the test verdict on CN1c2ccccc2N(C)C2C1N(C)c1ccccc1N2C (centres undefined) ?
(A) false

(Q) What was the test verdict on O=[N+]([O-])c1ccc(-c2nc3cc([N+](=O)[O-])ccc3[nH]2)cc1 ?
(A) false

(Q) What was the test verdict on N#Cc1cccc(N2C(=O)c3ccc(C(=O)c4ccc5c(c4)C(=O)N(c4cccc(C#N)c4)C5=O)cc3C2=O)c1 ?
(A) false

(Q) What was the test verdict on Oc1ccc(-c2cc(-c3c(O)cc(O)cc3O)on2)cc1 ?
(A) false

(Q) What was the test verdict on N#CSc1[nH]cnc1C(N)=O ?
(A) false

(Q) What was the test verdict on CN(C)[C@@H]1C(O)=C(C(N)=O)C(=O)[C@@]2(O)C(O)=C3C(=O)c4c(O)cccc4C[C@H]3C[C@@H]12 ?
(A) false

(Q) What was the test verdict on Cc1ccc(/C=C2\CCCc3ccccc3C2=O)cc1 ?
(A) false

(Q) What was the test verdict on Nc1nc(N)c2cc(Sc3ccc4nc(N)nc(N)c4c3)ccc2n1 ?
(A) true

(Q) What was the test verdict on COC(=O)Nc1nc2cc(S(=O)(=O)N3CCOCC3)ccc2[nH]1 ?
(A) false

(Q) What was the test verdict on Cc1ccc([N+](=O)[O-])cc1S(=O)(=O)Nc1ccc(C2=NN(S(=O)(=O)c3cc([N+](=O)[O-])ccc3C)C(c3ccco3)C2)cc1 (centres undefined) ?
(A) false

(Q) What was the test verdict on CCN(CC)c1ccc2cc3ccc(N(CC)CC)cc3[o+]c2c1 ?
(A) true

(Q) What was the test verdict on CN(CCNC(=O)c1cn(C)c2c1ccc1ccccc12)CCNC(=O)c1cn(C)c2c1ccc1ccccc12 ?
(A) false

(Q) What was the test verdict on N#C/C(N)=N/c1ccccc1 ?
(A) false

(Q) What was the test verdict on CCCCCCCCCCCCCC(=O)CC(=O)c1c(O)cccc1O ?
(A) false

(Q) What was the test verdict on O=C(c1ccc(NCN2C(=O)CCC2=O)cc1)c1ccc(NCN2C(=O)CCC2=O)cc1 ?
(A) false

(Q) What was the test verdict on CCOP(=O)(/C=C\n1cc(C)c(=O)[nH]c1=O)OCC ?
(A) false

(Q) What was the test verdict on CN(C)CC1CCCC(CN2CCCCC2)C1=O (centres undefined) ?
(A) false

(Q) What was the test verdict on O=C1CC(C(OCc2ccccc2)C(OCc2ccccc2)C(OCc2ccccc2)C(COCc2ccccc2)OCc2ccccc2)CC(=O)N1 (centres undefined) ?
(A) false

(Q) What was the test verdict on Sc1nnc(SCc2ccccc2Cl)c2nc[nH]c12 ?
(A) false
